B1: TPR 5TU (parent)
chain: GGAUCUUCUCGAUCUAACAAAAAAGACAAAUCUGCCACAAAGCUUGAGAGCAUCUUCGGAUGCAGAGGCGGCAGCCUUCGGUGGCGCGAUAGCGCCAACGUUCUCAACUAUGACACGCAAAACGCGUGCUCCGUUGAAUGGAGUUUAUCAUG

# Variants of: B1
# measurement-protocol: polymerase ribozyme fitness, log enrichment relative to wild type (log ratio); higher = more active; in vitro selection for triplet polymerase activity
Variants at the floor of the assay were thinned out.
For each record, write down the corresponding polymerase ribozyme fitness (log ratio).

| residue-change | polymerase ribozyme fitness (log ratio) |
| --- | --- |
| A52G A137C | -3.28 |
| A29U C36U G62A U109G | ≤ -4.2 |
| A21C A37U C76U C87U | -1.62 |
| C51U C54G C85U U101G A137G U144G | ≤ -4.2 |
| C35G G84A C93G U101G | ≤ -4.2 |
| C14U G92A C103G | ≤ -4.2 |
| C27A G88A C96A A97G G128U U135G U145A | ≤ -4.2 |
| G11A C54U U61A C95A C149G | ≤ -4.2 |
| C38U G84U C87G U144C C149G | ≤ -4.2 |
| U4C C76A C93U G141C | ≤ -4.2 |

Using known records, supply polymerase ribozyme fitness (log ratio) for A12U A22U C27U A40G C69A U78A G94A A115C A119U G124A
≤ -4.2
